# System: PBMC
# measurement.notes: Antiinflammatory activity in human PBMC assessed as inhibition of MIF-induced IL-6 production at 30 uM after 21 hrs by ELISA
# Format: functional
Grouping rule (inhibition at 30 µM): interval 1: < 5%; interval 2: ≥ 5% and < 20%; interval 3: ≥ 20%

FC(F)(F)c1ccc(C2CC(c3ccoc3)=NO2)cc1 (stereo not drawn); interval 3

Class for O=C1CCCN1C1CC(c2ccoc2)=NO1 (stereo not drawn) ?
interval 3

Entry CC1(C(=O)O)CC(c2cn(-c3cccc(C(F)(F)F)c3)c3ccccc23)=NO1 (stereo not drawn) belongs to which category?
interval 2

Exercise: read the entry O=C1CCCN1C1CC(c2cn(-c3cccc(C(F)(F)F)c3)c3ccccc23)=NO1 (stereo not drawn) and state which class it falls under.
interval 3

Category of COC(=O)CC1CC(c2ccc(O)cc2)=NO1 (stereo not drawn) :
interval 2

Which bin should I file COC(=O)CC1(C(=O)OC)CC(c2cn(-c3cccc(C(F)(F)F)c3)c3ccccc23)=NO1 (stereo not drawn) under?
interval 1

State the band of O=C1c2ccccc2C(=O)N1C1CC(c2ccoc2)=NO1 (stereo not drawn)
interval 2

====

# target: UniProt P14174
# measurement.notes: Inhibition of MIF in human PBMC assessed as MIF secretion at 100 uM after 5 hrs by ELISA
metric.name: inhibition

Examples with their reported inhibition follow.
CC(C)(C)C(=O)OC1CC(c2cn(-c3cccc(C(F)(F)F)c3)c3ccccc23)=NO1 (stereo unspecified); 5%
c1ccc(C2CC(c3ccoc3)=NO2)cc1 (stereo unspecified); 68%
FC(F)(F)c1cccc(-n2cc(C3=NOC(c4ccccc4)C3)c3ccccc32)c1 (stereo unspecified); 2%
c1ccc2c(c1)ccn2CC1CC(c2ccoc2)=NO1 (stereo unspecified); 95%
COC(=O)CC1(C(=O)OC)CC(c2ccoc2)=NO1 (stereo unspecified); 0%
COC(=O)CC1(C(=O)OC)CC(c2cn(-c3cccc(C(F)(F)F)c3)c3ccccc23)=NO1 (stereo unspecified); 10%
FC(F)(F)c1cccc(-n2cc(C3=NOC(CN4CCOCC4)C3)c3ccccc32)c1 (stereo unspecified); 0%
O=C1c2ccccc2C(=O)N1C1CC(c2ccoc2)=NO1 (stereo unspecified); 83%
FC(F)(F)c1ccc(C2CC(c3cn(-c4cccc(C(F)(F)F)c4)c4ccccc34)=NO2)cc1 (stereo unspecified); 5%
COc1ccc(C2CC(c3cn(-c4cccc(C(F)(F)F)c4)c4ccccc34)=NO2)cc1 (stereo unspecified); 1%

API: the following record is the query input.
Noted inhibition for c1cc(C2=NOC(CN3CCOCC3)C2)co1 (stereo unspecified) , tested on UniProt P14174: 78%

====

# target: Macrophage migration inhibitory factor (Homo sapiens) (UniProt P14174)
# measurement.notes: Inhibition of human purified MIF tautomerase activity at 100 uM after 30 mins
metric.name: inhibition (%)
I only need the number, in %, no unit after it.

FC(F)(F)c1cccc(-n2cc(C3=NOC(CN4CCOCC4)C3)c3ccccc32)c1 (stereo not given); 100
FC(F)(F)c1ccc(C2CC(c3cn(-c4cccc(C(F)(F)F)c4)c4ccccc34)=NO2)cc1 (stereo not given); 51
COc1ccc(C2CC(c3ccoc3)=NO2)cc1 (stereo not given); 72

Lab note: COc1ccc(C2CC(c3cn(-c4cccc(C(F)(F)F)c4)c4ccccc34)=NO2)cc1 (stereo not given) gave inhibition of 97

Record c1cc(C2=NOC(C3CCCCC3)C2)co1 (stereo not given) , field inhibition: 54

====

# measurement.notes: Cytotoxicity against human PBMC assessed as cell viability measured during MIF secretion assay at 100 uM after 21 hrs by MTS assay
# Assay type: cell-based
# experimental.setup: PBMC (peripheral blood mononuclear cells)
metric.name: cytotoxicity at 21 h, 100 µM (%)
Expressed in %, but write only the number.

FC(F)(F)c1cccc(-n2cc(C3=NOC(CN4CCOCC4)C3)c3ccccc32)c1 (stereo not drawn); 65
FC(F)(F)c1ccc(C2CC(c3cn(-c4cccc(C(F)(F)F)c4)c4ccccc34)=NO2)cc1 (stereo not drawn); 0
CC(C)(C)C(=O)OC1CC(c2cn(-c3cccc(C(F)(F)F)c3)c3ccccc23)=NO1 (stereo not drawn); 0
O=C1CCCN1C1CC(c2cn(-c3cccc(C(F)(F)F)c3)c3ccccc23)=NO1 (stereo not drawn); 15
O=C1CCCN1C1CC(c2ccoc2)=NO1 (stereo not drawn); 0

Per the record, COC(=O)CC1(C(=O)OC)CC(c2cn(-c3cccc(C(F)(F)F)c3)c3ccccc23)=NO1 (stereo not drawn) has cytotoxicity at 21 h, 100 µM of 0

According to the records, this molecule Fc1ccc(C2CC(c3ccoc3)=NO2)cc1 (stereo not drawn) displays cytotoxicity at 21 h, 100 µM of 0

====

# target: Macrophage migration inhibitory factor (Homo sapiens)
# measurement.notes: Inhibition of human purified MIF tautomerase activity at 10 uM after 30 mins
# inhibition listing for each entry below
Just the number plus its unit, please.

response.value for COC(=O)CC1CC(c2ccc(O)cc2)=NO1 (stereo not drawn) (field: inhibition) = 8%

Looking up c1cc(C2=NOC(CN3CCOCC3)C2)co1 (stereo not drawn) , I see its inhibition listed as 20%

Value of inhibition reported for the compound O=C1c2ccccc2C(=O)N1C1CC(c2cn(-c3cccc(C(F)(F)F)c3)c3ccccc23)=NO1 (stereo not drawn) is 8%

====

# target: Macrophage migration inhibitory factor (Homo sapiens)
# measurement.notes: Inhibition of MIF in human PBMC assessed as MIF secretion at 10 uM after 5 hrs by ELISA
metric.name: inhibition (%)
All answers are understood in %, so give the number only.

Would you please look over these solved cases?
OCCC1CC(c2cn(-c3cccc(C(F)(F)F)c3)c3ccccc23)=NO1 (stereo not drawn); 0
Fc1ccc(C2CC(c3cn(-c4cccc(C(F)(F)F)c4)c4ccccc34)=NO2)cc1 (stereo not drawn); 0

Record CC1(C(=O)O)CC(c2ccoc2)=NO1 (stereo not drawn) , field inhibition: 0

====

Recorded inhibition by entry
# target: Macrophage migration inhibitory factor (Homo sapiens)
# Sequence (whole entry): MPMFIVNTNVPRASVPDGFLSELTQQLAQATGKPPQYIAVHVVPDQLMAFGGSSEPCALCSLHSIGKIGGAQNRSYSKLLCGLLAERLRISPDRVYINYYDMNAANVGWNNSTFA
# measurement.notes: Inhibition of MIF in human PBMC assessed as MIF secretion at 10 uM after 5 hrs by ELISA
Reply with just the number (in %).

Here's what some known entries look like.
COC(=O)C1(C)CC(c2ccoc2)=NO1 (stereo not given); 0
COC(=O)C1(C)CC(c2cn(-c3cccc(C(F)(F)F)c3)c3ccccc23)=NO1 (stereo not given); 4
FC(F)(F)c1cccc(-n2cc(C3=NOC(Cn4ccc5ccccc54)C3)c3ccccc32)c1 (stereo not given); 0
FC(F)(F)c1ccc(C2CC(c3ccoc3)=NO2)cc1 (stereo not given); 31

Sample COC(=O)CC1CC(c2ccc(O)cc2)=NO1 (stereo not given) , system: Macrophage migration inhibitory factor (Homo sapiens). Its inhibition is 35

====

# Tested on: PBMC
# measurement.notes: Antiinflammatory activity in human PBMC assessed as inhibition of MIF-induced IL-6 production at 30 uM after 21 hrs by ELISA
# Format: functional
metric.name: inhibition at 30 µM (%)
Write the answer as a number in %, unit excluded.

Please fill in: inhibition at 30 µM reported for COc1ccc(C2CC(c3cn(-c4cccc(C(F)(F)F)c4)c4ccccc34)=NO2)cc1 (stereo unspecified) = 5

For c1ccc(C2CC(c3ccoc3)=NO2)cc1 (stereo unspecified) the compound record lists inhibition at 30 µM as 5

In plain terms, OCCC1CC(c2ccoc2)=NO1 (stereo unspecified) has a documented inhibition at 30 µM of 18

Reported inhibition at 30 µM ( c1cc(C2=NOC(CN3CCOCC3)C2)co1 (stereo unspecified) ) = 39

get_value(item= FC(F)(F)c1cccc(-n2cc(C3=NOC(C4CCCCC4)C3)c3ccccc32)c1 (stereo unspecified) , readout=inhibition at 30 µM) returns 4

====

# measurement.notes: Cytotoxicity against human PBMC assessed as cell viability measured during MIF secretion assay at 100 uM after 21 hrs by MTS assay
# Format: cell-based
# experimental.setup: PBMC (peripheral blood mononuclear cells)
metric.name: cytotoxicity at 21 h, 100 µM (%)
Field format: number, assumed %, no unit text.

c1cc(C2=NOC(C3CCCCC3)C2)co1 (stereo unspecified); 6

Entry COC(=O)C1(C)CC(c2cn(-c3cccc(C(F)(F)F)c3)c3ccccc23)=NO1 (stereo unspecified) , cytotoxicity at 21 h, 100 µM reported as 5

Looking up CC(C)(C)C(=O)OC1CC(c2ccoc2)=NO1 (stereo unspecified) , I found its cytotoxicity at 21 h, 100 µM recorded as 0

Looking up FC(F)(F)c1cccc(-n2cc(C3=NOC(c4ccccc4)C3)c3ccccc32)c1 (stereo unspecified) , I found its cytotoxicity at 21 h, 100 µM recorded as 0

Value of measured cytotoxicity at 21 h, 100 µM for the entry OCCC1CC(c2cn(-c3cccc(C(F)(F)F)c3)c3ccccc23)=NO1 (stereo unspecified) : 0

The value of cytotoxicity at 21 h, 100 µM measured for the compound c1ccc2c(c1)ccn2CC1CC(c2ccoc2)=NO1 (stereo unspecified) turned out to be 0

cytotoxicity at 21 h, 100 µM reported for this compound c1cc(C2=NOC(CN3CCOCC3)C2)co1 (stereo unspecified) : 0

Record FC(F)(F)c1cccc(-n2cc(C3=NOC(Cn4ccc5ccccc54)C3)c3ccccc32)c1 (stereo unspecified) . Reported cytotoxicity at 21 h, 100 µM: 0

So, O=C1c2ccccc2C(=O)N1C1CC(c2ccoc2)=NO1 (stereo unspecified) ? Its cytotoxicity at 21 h, 100 µM was 0

All values here come from ChEMBL document CHEMBL1681642.
